Origin of measurements: ChEMBL document CHEMBL6134782

- assay_notes: Antiproliferative activity against human HaCaT cells assessed as inhibition of cell growth incubated for 48 hrs by SRB assay
- Type: toxicity, cell-based
- particulars: human, HaCaT cells
observable: IC50 at 48 h

{"chem_smiles": "CCCCCN1CCN(c2ccc(S(=O)(=O)Oc3cc(Br)nc(Br)c3)cc2)C1=O", "meas_value": "> 12.5 µM"}
{"chem_smiles": "CCCCN1CCN(c2ccc(S(=O)(=O)Oc3ccnc(Br)c3)cc2)C1=O", "meas_value": "> 25 µM"}
{"chem_smiles": "CCCCN1CCN(c2ccc(S(=O)(=O)Oc3cc(OC)c(OC)c(OC)c3)cc2)C1=O", "meas_value": "> 5 µM"}
